- STUDY_TARGET: recombinant human AMPK complex 7 (containing α2β1γ1) (Homo sapiens, UniProt P54646+Q9Y478)
- Construct: made in house; host or cells: Spodoptera frugiperda Sf21 cells, baculovirus, triple infection (one virus per subunit)
- Sequence (P54646 whole entry): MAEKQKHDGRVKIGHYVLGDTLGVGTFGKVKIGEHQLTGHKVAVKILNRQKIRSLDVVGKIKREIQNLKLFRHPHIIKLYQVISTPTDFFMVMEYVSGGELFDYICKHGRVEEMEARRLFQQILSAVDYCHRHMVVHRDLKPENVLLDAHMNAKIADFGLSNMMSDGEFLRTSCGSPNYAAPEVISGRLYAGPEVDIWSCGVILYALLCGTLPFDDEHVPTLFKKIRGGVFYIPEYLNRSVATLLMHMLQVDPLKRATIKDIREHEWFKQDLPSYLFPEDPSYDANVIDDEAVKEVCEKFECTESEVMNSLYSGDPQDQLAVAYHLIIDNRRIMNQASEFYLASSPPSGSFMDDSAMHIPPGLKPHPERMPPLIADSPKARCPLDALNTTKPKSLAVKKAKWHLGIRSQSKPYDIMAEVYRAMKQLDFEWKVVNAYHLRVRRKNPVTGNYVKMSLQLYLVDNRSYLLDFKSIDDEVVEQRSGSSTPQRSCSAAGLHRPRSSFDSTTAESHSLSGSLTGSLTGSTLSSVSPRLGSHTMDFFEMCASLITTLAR
- Sequence (Q9Y478 whole entry): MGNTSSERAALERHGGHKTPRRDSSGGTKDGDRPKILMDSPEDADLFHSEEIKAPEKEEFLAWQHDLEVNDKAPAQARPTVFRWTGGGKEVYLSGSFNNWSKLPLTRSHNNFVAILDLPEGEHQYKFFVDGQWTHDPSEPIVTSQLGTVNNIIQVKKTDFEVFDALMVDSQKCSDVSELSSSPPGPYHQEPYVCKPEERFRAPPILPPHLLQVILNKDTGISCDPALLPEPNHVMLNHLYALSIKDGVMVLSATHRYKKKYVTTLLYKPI
- Sequence (P54619 whole entry partner): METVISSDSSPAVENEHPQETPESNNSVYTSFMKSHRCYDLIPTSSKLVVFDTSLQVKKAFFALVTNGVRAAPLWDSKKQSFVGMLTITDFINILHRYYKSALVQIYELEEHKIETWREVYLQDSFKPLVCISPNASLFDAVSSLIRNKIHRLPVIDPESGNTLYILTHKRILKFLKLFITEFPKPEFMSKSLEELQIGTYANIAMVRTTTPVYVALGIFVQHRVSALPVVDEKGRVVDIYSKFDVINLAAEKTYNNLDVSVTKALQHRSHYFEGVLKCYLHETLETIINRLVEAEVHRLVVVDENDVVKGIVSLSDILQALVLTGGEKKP
- TEST: In vitro AMPK activation assay (AMPKSAMSF), complex 7
- Assay type: biochemical
- TEST_CONDITIONS: recombinant human AMPK complex 7 (α2β1γ1); inflection point reflecting 50% of the maximum activation
# EC50 listing for each entry below
METRIC_NAME: EC50 (nM)

MOLECULE | VALUE_OBSERVED
Oc1ccnc(-c2ccc(-c3ccc(-c4c(F)cc5[nH]c(O[C@@H]6CO[C@H]7[C@@H]6OC[C@H]7O)nc5c4F)cc3)cc2)n1 [Example 41] | 3
CC(CO)(CO)c1ccc(-c2ccc(-c3c(F)cc4[nH]c(O[C@@H]5CO[C@H]6[C@@H]5OC[C@H]6O)nc4c3F)cc2)cc1 [Example 33] | 5
O[C@@H]1CO[C@H]2[C@@H]1OC[C@H]2Oc1nc2cc(-c3ccc(-c4ccc(C5CNCCO5)cc4)cc3)c(Cl)cc2[nH]1 (stereo partly shown) [Example 67] | 4
O[C@@H]1CO[C@H]2[C@@H]1OC[C@H]2Oc1nc2c(F)c(-c3ccc(-c4ccc(-n5ccnn5)cc4)cc3)c(F)cc2[nH]1 [Example 43] | 3
O=C(O)C1CC1c1ccc(-c2ccc(-c3cc4nc(O[C@@H]5CO[C@H]6[C@@H]5OC[C@H]6O)[nH]c4cc3Cl)cc2)cc1 (stereo partly shown) [Example 57] | 8
O=C1NCCC1c1ccc(-c2ccc(-c3cc4nc(O[C@@H]5CO[C@H]6[C@@H]5OC[C@H]6O)[nH]c4cc3Cl)cc2)cc1 (stereo partly shown) [Example 83] | 5
CNC(=O)c1ccc(-c2ccc(-c3cc4nc(O[C@@H]5CO[C@H]6[C@@H]5OC[C@H]6O)[nH]c4cc3Cl)cc2)cc1 [Example 76] | 5
O[C@@H]1CO[C@H]2[C@@H]1OC[C@H]2Oc1nc2cc(-c3ccc(-c4ccc(-n5ccnn5)cc4)cc3)c(Cl)cc2[nH]1 [Example 73] | 7
O[C@@H]1CO[C@H]2[C@@H]1OC[C@H]2Oc1nc2c(F)c(-c3ccc(-c4ccc(C5CNCCO5)cc4)cc3)c(F)cc2[nH]1 (stereo partly shown) [Example 34] | 5
O=C1NCCC1c1ccc(-c2ccc(-c3c(F)cc4[nH]c(O[C@@H]5CO[C@H]6[C@@H]5OC[C@H]6O)nc4c3F)cc2)cc1 (stereo partly shown) [Example 40] | 5
O=S(=O)(c1ccc(-c2ccc(-c3cc4nc(O[C@@H]5CO[C@H]6[C@@H]5OC[C@H]6O)[nH]c4cc3Cl)cc2)cc1)C1CCNCC1 [Example 79] | 9
Oc1ccnc(-c2ccc(-c3ccc(-c4cc5nc(O[C@@H]6CO[C@H]7[C@@H]6OC[C@H]7O)[nH]c5cc4Cl)cc3)cc2)n1 [Example 68] | 3
O=c1ncn(-c2ccc(-c3ccc(-c4cc5nc(O[C@@H]6CO[C@H]7[C@@H]6OC[C@H]7O)[nH]c5cc4Cl)cc3)cc2)[nH]1 [Example 69] | 2

The measured values listed here are drawn from patent US9556193B2.
